Biological target: Muscarinic acetylcholine receptor M1 (Homo sapiens)
Assay: Cholinergic receptor muscarinic 1 (CHRM1) small molecule antagonists, cell-based qHTS assay (AID 1963588); further: nearly all actives have a fitted effect of over 40% in size
Settings: CHRM1-CHO antagonist mode, calcium flux fluorescence; series mostly up to 61.5 µM
Records with an inconclusive call do not appear. The source made the active and inactive calls. The call rests on the fitted dose curve.
Possible outcomes: True (active), False (inactive)

| compound | label value |
| --- | --- |
| C/C=C/C=N/NC(=O)c1ccncc1 | False |
| O=C1OC2(c3ccccc31)c1ccc(O)c(Br)c1Oc1c2ccc(O)c1Br | False |
| CCCCNCCCC | False |
| CNC1CCCN(c2c(F)cc3c(=O)c(C(=O)O)cn(C4CC4)c3c2OC)C1 (stereo not given) | False |
| Cc1ccc2c(Br)cc(Br)c(O)c2n1 | False |
| Cn1cc(C(=O)[C@@H]2CCc3nc[nH]c3C2)c2ccccc21 | False |
| C[C@H](CCC(=O)O)[C@H]1CC[C@H]2[C@@H]3[C@H](O)C[C@@H]4C[C@H](O)CC[C@]4(C)[C@H]3CC[C@]12C | False |
| Nc1ccc(O)c(N)c1 | False |
| CS(=O)(=O)CCNCc1ccc(-c2ccc3ncnc(Nc4ccc(OCc5cccc(F)c5)c(Cl)c4)c3c2)o1 | False |
| C=CC(=O)OCCOc1ccccc1 | False |
| CCCCCCCCCCCCCCCCN | False |
| O=C(OCCOCCOCCOC(=O)c1ccccc1)c1ccccc1 | False |
| C=CC(=O)OCC(C)OCC(C)OCC(C)OC(=O)C=C (stereo not given) | False |
| CC(C)CCCC(C)CC=O (stereo not given) | False |
| CC(C)C1=CC2=CC[C@@H]3[C@](C)(CCC[C@@]3(C)C(=O)O)[C@H]2CC1 | False |
| CCCCCCOc1ccccc1C(N)=O | False |
| C/C=C/C=C/C=O | False |
| c1ccc2c(c1)-c1ccc3ccc4cccc5cc-2c1c3c45 | False |
| O=C(Cl)c1c(Cl)cccc1Cl | False |
| CCCOc1sc(C(=O)N2CCC(c3cc(CN)ccc3F)CC2)c(C)c1Br | False |
| CC(C)(C)c1ccc(N)cc1 | False |
| CC(C)(C)C1CCC(CC2=C(O)c3ccccc3C(=O)C2=O)CC1 (stereo not given) | False |
| CCCc1ncc(C[n+]2ccccc2C)c(N)n1 | False |
| CCCCNCC | False |
| OC(CCN1CCCCC1)(c1ccccc1)C1CC2C=CC1C2 (stereo not given) | True |
| O=Cc1ccc(Cl)c([N+](=O)[O-])c1 | False |
| NCCCN(CCO)CCO | False |
| CNC(C)=O | False |
| CCCCCCCC/C=C\CCCCCCCC(=O)OC(CO)CO | False |
| C#CC(O)C(CC)CCCC (stereo not given) | False |
| COc1ccnc2c1CCCCC2S(=O)c1nc2ccccc2[nH]1 (stereo not given) | False |
| CCc1cccc(N(C)C(N)=Nc2cccc3ccccc23)c1 | False |
| Cc1ccc(Cl)c(N)c1Cl | False |
| c1ccc(C[n+]2cccc3ccccc32)cc1 | False |
| Cc1c(N)c(=O)n(-c2ccccc2)n1C | False |
| O=C(O)CCc1nc2ccccc2[nH]1 | False |
| CC(C)(CO)[N+](=O)[O-] | False |
| CCOC(=O)c1ccc(C2CCC(NC[C@H](O)COc3ccc(O)c(NS(C)(=O)=O)c3)CC2)cc1 (stereo not given in full) | True |
| CC/C=C\CC/C=C/CO | False |
| CC[C@@]1(c2ccccc2)NC(=O)N(C)C1=O | False |
| Nc1c[n+](N2CCOCC2)no1 | False |
| CCCCC(CC)CNC(=O)CC(C)OC(=O)CCC(=O)O (stereo not given) | False |
| Cc1oc2c(NC(=O)c3c(Cl)cccc3Cl)cccc2c1C(C)(C)O | False |
| C=C(C)C(=O)OCC | False |
| COc1ccc(N=Nc2cc(C)c(N=Nc3ccc(S(=O)(=O)O)cc3)cc2OC)cc1 | False |
| CCCC(=O)O[C@]1(C(=O)CCl)[C@@H](C)C[C@H]2[C@@H]3CCC4=CC(=O)C=C[C@]4(C)[C@@]3(F)C(=O)C[C@@]21C | False |
| C=C(C)c1cccc(C(=C)C)c1 | False |
| CCOC(=O)CC(=O)C(=O)OCC | False |
| O=C1C=CC(=O)N1c1cccc(N2C(=O)C=CC2=O)c1 | False |
| C=CC(=O)N1CCOCC1 | False |
| O=C1NC(=O)c2cccc3cccc1c23 | False |
| COCCOC | False |
| CCOc1ccc2c(c1)C(C)CC(C)(C)N2 (stereo not given) | False |
| CCCC/C=C/CCCCO | False |
| COC(=O)c1ccc(C(=O)O)cc1 | False |
